# STUDY_TARGET: human mature TGFβ1 (Homo sapiens, UniProt P01137)
# Sequence (P01137 279-390): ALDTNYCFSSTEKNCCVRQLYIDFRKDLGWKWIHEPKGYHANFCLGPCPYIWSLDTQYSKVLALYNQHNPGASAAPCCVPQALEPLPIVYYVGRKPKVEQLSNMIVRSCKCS
# TEST: cell-based or functional assay
Assign TGFβ inhibition by HEK-Blue cells (IC50: nM), TGFb1 to each entry below.

In plain terms, humanized 4A11 variant 5 (antibody, V domains shown, as the VH of m7 (h4A11.v2): rbt4A11 CDRs and rabbit Vernier residues grafted on human germline IGHV3-48*01; as the VL of m12 (h4A11.v7): rbt4A11 CDRs and rabbit Vernier residues grafted on human germline IGKV3-20*01; human IgG1; also called h4A11.v5; v5; source: Expi293F, transient, purified (Protein A, SEC)) VH: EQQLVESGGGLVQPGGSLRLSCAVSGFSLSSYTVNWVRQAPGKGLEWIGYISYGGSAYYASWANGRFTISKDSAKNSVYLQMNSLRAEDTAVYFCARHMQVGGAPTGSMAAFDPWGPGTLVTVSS VL: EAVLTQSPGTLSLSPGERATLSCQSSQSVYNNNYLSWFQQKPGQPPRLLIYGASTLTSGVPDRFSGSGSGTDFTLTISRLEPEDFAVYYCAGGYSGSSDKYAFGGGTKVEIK has a documented TGFβ inhibition by HEK-Blue cells (IC50: nM), TGFb1 of > 667 nM

The binder listed as rabbit monoclonal antibody 4A11 (antibody, V domains shown, VH of rbt4A11; VL of rbt4A11; Parental rabbit antibody; also called rbt4A11) VH: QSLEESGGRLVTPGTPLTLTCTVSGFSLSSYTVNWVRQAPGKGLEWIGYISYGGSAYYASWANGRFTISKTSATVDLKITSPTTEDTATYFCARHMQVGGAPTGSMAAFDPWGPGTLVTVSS VL: AAVLTQTPSPVSAAVGGTVSISCQSSQSVYNNNYLSWFQQKPGQPPKLLIYGASTLTSGVPSRFKGSGSGTQFTLTISDVQCDDAATYYCAGGYSGSSDKYAFGGGTEVVVK has a reported TGFβ inhibition by HEK-Blue cells (IC50: nM), TGFb1 of > 667 nM

Lookup result for humanized 4A11 variant 2 (antibody, V domains shown, rbt4A11 CDRs (Kabat and Chothia) and rabbit Vernier residues (VH positions 2, 24, 37, 48, 49, 67, 71, 78, 91, 105) grafted on human germline IGHV3-48*01; has R19, Y79, Q81 (Kabat numbering); rbt4A11 CDRs and rabbit Vernier residues (VL positions 2, 4, 36, 43, 58) grafted on human germline IGKV1D-39*01; human IgG1; also called h4A11.v2; v2; source: Expi293F, transient, purified (Protein A, SEC)) VH: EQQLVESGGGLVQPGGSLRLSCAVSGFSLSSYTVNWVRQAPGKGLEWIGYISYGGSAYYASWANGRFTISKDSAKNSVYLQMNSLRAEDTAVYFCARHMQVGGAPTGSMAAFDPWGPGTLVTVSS VL: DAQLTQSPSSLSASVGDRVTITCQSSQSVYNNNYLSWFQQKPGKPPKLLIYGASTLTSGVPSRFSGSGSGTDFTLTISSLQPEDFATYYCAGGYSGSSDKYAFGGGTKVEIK ; measured TGFβ inhibition by HEK-Blue cells (IC50: nM), TGFb1: > 667 nM

What the record says about humanized 4A11 variant 3 (antibody, V domains shown, as the VH of m12 (h4A11.v7): rbt4A11 CDRs and rabbit Vernier residues grafted on human germline IGHV4-59*06; as the VL of m6 (h4A11.v1): rbt4A11 CDRs and rabbit Vernier residues grafted on human germline IGKV4-1*01; human IgG1; also called h4A11.v3; v3; source: Expi293F, transient, purified (Protein A, SEC)) VH: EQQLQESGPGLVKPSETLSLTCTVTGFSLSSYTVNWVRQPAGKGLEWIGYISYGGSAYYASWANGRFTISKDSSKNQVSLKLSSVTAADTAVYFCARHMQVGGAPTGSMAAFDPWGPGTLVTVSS VL: DAVLTQSPDSLAVSLGERATINCQSSQSVYNNNYLSWFQQKPGQPPKLLIYGASTLTSGVPDRFSGSGSGTDFTLTISSLQAEDVAVYYCAGGYSGSSDKYAFGGGTKVEIK : TGFβ inhibition by HEK-Blue cells (IC50: nM), TGFb1 is > 667 nM

What the record says about humanized 4A11 variant 4 (antibody, V domains shown, as the VH of m12 (h4A11.v7): rbt4A11 CDRs and rabbit Vernier residues grafted on human germline IGHV4-59*06; as the VL of m7 (h4A11.v2): rbt4A11 CDRs and rabbit Vernier residues grafted on human germline IGKV1D-39*01; human IgG1; also called h4A11.v4; v4; source: Expi293F, transient, purified (Protein A, SEC)) VH: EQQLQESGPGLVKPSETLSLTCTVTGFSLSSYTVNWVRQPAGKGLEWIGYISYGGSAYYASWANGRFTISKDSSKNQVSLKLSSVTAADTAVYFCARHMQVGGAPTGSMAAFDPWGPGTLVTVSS VL: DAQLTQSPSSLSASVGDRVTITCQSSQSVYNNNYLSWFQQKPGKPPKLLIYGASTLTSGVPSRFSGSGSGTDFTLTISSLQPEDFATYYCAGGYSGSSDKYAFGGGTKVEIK : TGFβ inhibition by HEK-Blue cells (IC50: nM), TGFb1 is > 667 nM

So, humanized 4A11 variant 1 (antibody, V domains shown, as the VH of m7 (h4A11.v2): rbt4A11 CDRs and rabbit Vernier residues grafted on human germline IGHV3-48*01; rbt4A11 CDRs and rabbit Vernier residues (VL positions 2, 4, 36, 43, 58) grafted on human germline IGKV4-1*01; human IgG1; also called h4A11.v1; v1; source: Expi293F, transient, purified (Protein A, SEC)) VH: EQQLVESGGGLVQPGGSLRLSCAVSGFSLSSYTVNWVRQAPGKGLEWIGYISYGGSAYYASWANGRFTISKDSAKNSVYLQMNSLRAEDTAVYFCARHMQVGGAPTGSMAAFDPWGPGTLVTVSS VL: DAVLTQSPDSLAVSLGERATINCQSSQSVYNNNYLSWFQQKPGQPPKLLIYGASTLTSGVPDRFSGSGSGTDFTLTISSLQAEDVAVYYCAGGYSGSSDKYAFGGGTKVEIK ? Its TGFβ inhibition by HEK-Blue cells (IC50: nM), TGFb1 was > 667 nM

GET /value?item= humanized 4A11 variant 8 (antibody, V domains shown, as the VH of m12 (h4A11.v7): rbt4A11 CDRs and rabbit Vernier residues grafted on human germline IGHV4-59*06; as the VL of m11 (h4A11.v6): rbt4A11 CDRs and rabbit Vernier residues grafted on human germline IGKV2-24*01; human IgG1; also called h4A11.v8; v8; source: Expi293F, transient, purified (Protein A, SEC)) VH: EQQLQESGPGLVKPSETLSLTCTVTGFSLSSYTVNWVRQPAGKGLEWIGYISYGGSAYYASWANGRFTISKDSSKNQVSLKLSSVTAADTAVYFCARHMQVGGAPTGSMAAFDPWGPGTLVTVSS VL: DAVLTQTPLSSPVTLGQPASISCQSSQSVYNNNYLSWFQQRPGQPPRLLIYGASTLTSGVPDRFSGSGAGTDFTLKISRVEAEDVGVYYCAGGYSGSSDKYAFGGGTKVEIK &field=TGFβ inhibition by HEK-Blue cells (IC50: nM), TGFb1 returns > 667 nM
